Target: Transcription factor p65 (Homo sapiens)
Test: Inhibition of NF-kappaB DNA binding by EMSA
Below, each of the compounds is paired with its reported IC100 value.
Just the number in µM, nothing appended.

Sample records with IC100:
MOL: C=C(CO)C(=O)OC/C1=C\C[C@@H]2C(=C)C(=O)O[C@H]2C/C(CO)=C/CC1
ASSAY_VALUE: 20

MOL: C=C(C)C(=O)O[C@@H]1/C=C(/C=O)CCC[C@@]2(CO2)[C@H](O)[C@H]2OC(=O)C(=C)[C@@H]21
ASSAY_VALUE: 5

MOL: C=C1C(=O)O[C@@H]2[C@H]3C(C)=CC(=O)C3=C(C)CC[C@@H]12
ASSAY_VALUE: 50

Shift focus to the following entry.
Enquiry: Query: IC100; subject: C=C(C)C(=O)O[C@H]1C/C(C)=C\[C@@]2(OC)C=C(C)[C@H](O2)[C@H]2OC(=O)C(=C)[C@@H]21
Return: 10

###

Target: Transcription factor p65 (Homo sapiens) (UniProt Q04206)
Sequence (Q04206 whole entry): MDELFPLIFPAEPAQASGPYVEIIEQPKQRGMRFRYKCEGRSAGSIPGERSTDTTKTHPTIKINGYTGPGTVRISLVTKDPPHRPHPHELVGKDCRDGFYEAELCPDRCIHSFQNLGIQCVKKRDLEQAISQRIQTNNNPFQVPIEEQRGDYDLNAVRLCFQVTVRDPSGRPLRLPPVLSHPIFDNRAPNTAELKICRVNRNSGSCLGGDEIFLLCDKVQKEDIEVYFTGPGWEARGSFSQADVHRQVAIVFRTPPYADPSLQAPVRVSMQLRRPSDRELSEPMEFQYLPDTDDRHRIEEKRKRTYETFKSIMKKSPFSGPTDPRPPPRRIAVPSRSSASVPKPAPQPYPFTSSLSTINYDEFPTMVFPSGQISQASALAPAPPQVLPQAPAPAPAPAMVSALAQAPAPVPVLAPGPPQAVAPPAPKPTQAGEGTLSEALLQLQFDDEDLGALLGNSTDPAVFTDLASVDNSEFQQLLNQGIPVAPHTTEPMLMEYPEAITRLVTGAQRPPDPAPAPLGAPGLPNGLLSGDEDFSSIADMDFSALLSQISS
Assay: Inhibition of NF-kappaB DNA binding by EMSA
Below, each of the compounds is paired with its reported IC100 value.
Lab note: write values as number then unit, every time.

Sample records with IC100:
COMPOUND: C=C1C(=O)O[C@@H]2C[C@@]3(C)[C@H](O)CC=C(COC(=O)C(C)C)[C@@H]3C[C@H]12
ASSAY_VALUE: 50 µM

COMPOUND: C=C(C)C(=O)O[C@H]1[C@H]2C(=C)C(=O)O[C@@H]2[C@@H](O)[C@@]2(CC/C=C(/C=O)[C@@H]1OC(C)=O)CO2
ASSAY_VALUE: 5 µM

Enquiry: Query: IC100; subject: C=C1C(=O)O[C@]23C[C@H]1CCC(COC(C)=O)=C2C(=O)C=C3C
Return: 100 µM

Enquiry: Further, for C=C1C(=O)O[C@@H]2C[C@@H](C)[C@@H]3[C@@H](OC(C)=O)C[C@@H](O)[C@@]3(C)[C@@H](O)[C@H]12 ?
Return: 200 µM

Enquiry: Further, for C=C1[C@H](O)C[C@@H](O)[C@]2(C)CC[C@H]3C(=C)C(=O)O[C@@H]3[C@@H]12 ?
Return: 200 µM

Enquiry: Further, for C=C1C(=O)O[C@@H]2[C@H]3C(C)=C(Cl)C(=O)C3=C(C)CC[C@@H]12 ?
Return: 20 µM

Enquiry: Further, for C=C1C(=O)O[C@@H]2/C=C(/CO)C3=CC(=O)[C@@](C)(C[C@@H](OC(=O)/C(C)=C/C)[C@@H]12)O3 ?
Return: 5 µM

###

Molecular target: UniProt Q04206
Test: Inhibition of NF-kappaB DNA binding by EMSA
Below, each of the molecules is paired with its reported IC100 value.
Just the number in µM, nothing appended.

MOLECULE: C=C1CCC=C(C)[C@@]2(O)[C@H](OC(=O)[C@]3(C)O[C@@H]3C)[C@@H]3[C@@H](OC(=O)[C@@H]3C)[C@H]12
UNIT_LABEL: µM
IC100: 200

Enquiry: Query: IC100; subject: CC[C@@H](C)[C@@]1(O)O[C@H]2C[C@@]3(C)OC(=CC3=O)/C(CO)=C\[C@H]3OC(=O)[C@@]1(C)C23 (stereo partly drawn)
Return: 100

Enquiry: Further, for C=C1C(=O)O[C@@H]2C[C@H](C)[C@@]3(O)CC[C@@](C)(C[C@@H](OC(=O)C(C)C)[C@@H]12)O3 ?
Return: 200

Enquiry: Further, for C=C1C(=O)O[C@H]2/C=C(\C)CC/C=C(\C)[C@@H](OC(=O)/C(C)=C/C)[C@H](O)[C@@H]12 ?
Return: 100

Enquiry: Further, for C=C1C(=O)O[C@@H]2[C@H]3C(C)=CC[C@H]3[C@](C)(O)C[C@H](O)[C@@H]12 ?
Return: 100

Enquiry: Further, for C=C1C(=O)O[C@@H]2C[C@@H](C)[C@@H]3CCC(=O)[C@@]3(C)C[C@H]12 ?
Return: 50

Enquiry: Further, for C=C(C)C(=O)O[C@H]1C/C(C)=C/C(=O)/C=C(/C)[C@H](O)[C@H]2OC(=O)C(=C)[C@@H]21 ?
Return: 10

Enquiry: Further, for C=C1C(=O)O[C@H]2[C@H]1CCC(C)=C1C(=O)[C@H]3O[C@@]3(C)[C@@H]12 ?
Return: 5

###

Below, each of the molecules is paired with its reported IC100 value.
Target: Transcription factor p65 (Homo sapiens) (UniProt Q04206)
Assay: Inhibition of NF-kappaB DNA binding by EMSA
Just the number in µM, nothing appended.

Sample records with IC100:
MOLECULE: C=C(C)C(=O)O[C@@H]1CC(C)=C2C(=O)C=C(C)[C@@H]2[C@H]2OC(=O)C(=C)[C@@H]21
IC100, µM: 10
--
MOLECULE: C=C1C(=O)O[C@@H]2/C=C(/CO)[C@@]3(O)C[C@@H](O)[C@@](C)(C[C@@H](OC(=O)/C(C)=C\C)[C@@H]12)O3
IC100, µM: 20
--
MOLECULE: C=C1C(=O)O[C@@H]2C[C@H](C)C3=CC(=O)[C@H](C)[C@@H]3C[C@H]12
IC100, µM: 50
--
MOLECULE: C[C@@H]1C[C@H]2OC(=O)[C@@H](C)[C@H]2[C@H](O)[C@]2(C)C(=O)C=C[C@@H]12
IC100, µM: 200
--
MOLECULE: C=C1C(=O)O[C@@H]2C[C@@H](C)[C@@H]3C=CC(=O)[C@@]3(C)[C@H](OC(=O)C(C)CC)[C@H]12 (some centres undefined)
IC100, µM: 10

Shift focus to the following entry.
Enquiry: Query: IC100; subject: C=C(C)C(=O)O[C@H]1/C(C=O)=C\CC/C(COC(C)=O)=C/[C@H]2OC(=O)C(=C)[C@@H]2[C@@H]1O
Return: 5

###

Target: Transcription factor p65 (Homo sapiens) (UniProt Q04206)
Test: Inhibition of NF-kappaB DNA binding by EMSA
Below, each of the compounds is paired with its reported IC100 value.
Just the number in µM, nothing appended.

COMPOUND: C=C(C)C(=O)O[C@@H]1/C=C(\C=O)[C@H](OC)CCC(=C)[C@H](O)[C@H]2OC(=O)C(=C)[C@@H]21
IC100 (µM): 10

COMPOUND: C=C1C(=O)O[C@H]2C/C(CO)=C/CC/C(COC(=O)C(C)C(C)O)=C/C[C@H]12 (stereo partly drawn)
IC100 (µM): 50

Shift focus to the following entry.
Enquiry: Query: IC100; subject: C=C(C)C(=O)O[C@@H]1C[C@]2(C)CC[C@@](OC)(O2)/C(C)=C\[C@H]2OC(=O)C(=C)[C@@H]21
Return: 200

Provenance of the data: ChEMBL document CHEMBL1146082
